# System: Saccharomyces cerevisiae
# EXPERIMENTAL_DETAILS: protein stability index of tFT-peptide fusion (C-terminal peptide) (PSI (0-1 scale)); higher = more stable (slower turnover)
# CONDITIONS: genetic background: doa10 deletion; temperature: 30 C
A collection of sequences and their measured protein stability index
READOUT_NAME: protein stability index

> print(dat)
    residue.string  endpoint.value
 1    GSWGGGWRYVGW           0.664
 2    WFVFVFCSPRSS           0.394
 3    CNIYVLIIIKKY           0.157
 4    ILRKTAFRLRVL           0.228
 5    WGVVMVCVVFGL           0.159
 6    LHLLFLPFVVCL          0.0556
 7    CYTGYMYKLLVG           0.246
 8    GALVVSWAEVLC           0.372
 9    YSVFCPLFFIIY           0.351
10    WAIVVLVCFLRL           0.332

====

# System: Saccharomyces cerevisiae;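 also: PSI is a weighted mean of sequencing reads over stability bins, variants kept only with over 10 reads, mCherry proximal and sfGFP distal, peptide attached via GGGS linker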
# EXPERIMENTAL_DETAILS: protein stability index of tFT-peptide fusion (C-terminal peptide) (PSI (0-1 scale)); higher = more stable (slower turnover)
# CONDITIONS: genetic background: das1 deletion; temperature: 37 C
READOUT_NAME: protein stability index

> print(dat)
    residue.string  endpoint.value
 1    VASYVCIGVVWV           0.497
 2    IPFRRCFWFFWV           0.691
 3    VFIPFGFCLCFV           0.466
 4    GVVCWVVVFGGW           0.512
 5    WVFVETVFLVCG           0.316
 6    WVWFGCVLGYRV           0.566
 7    ISVSFSVIFFLL           0.478
 8    VGGREVSRAGGG           0.578
 9    LFHPPSFSLRLF           0.748
10    GRTDFSTLLLIC           0.683
11    SCCGCGFGLLFC           0.781
12    GIISMYVARRLG           0.698
13    RARFMLGVLLST           0.583
14    LGLCFFFYSLHS           0.586
15    FASFLFFCYIIF           0.263
16    GGWGVFGVWVWM            0.59
17    LASFCSVCIFIS           0.429
18    GHYQGVCHRRIC           0.767
19    VFLCFSWHFFLF           0.559
20    QVGRPRVGFSRR            0.75
21    YVFSPWSCWASV           0.361
22    RARLRFASLRAF           0.644
23    CNIYVLIIIKKY           0.344
24    TVYMVIRVIVWG           0.246
25    VSRAVCLWRRLL            0.73
26    VWACWCGWVLLM           0.467
27    RPPHPPPATFLS           0.727
28    FCRLCYLLLFCC           0.531
29    EWLITLRKCGVA           0.611
30    FGCCLYFCFWGL           0.524
31    LLILIVNLRRIG           0.607
32    WEPILLELELCV           0.487
33    RVLILCLFFRWS           0.435
34    AIPRWLALLVAH           0.451
35    SFFCTRVLWVFQ           0.629
36    PLFLRPLSVPVL           0.457
37    FSPLVCLLFFLF           0.572
38    LHFHIYLIISPF           0.311
39    WLSISNLVIACR           0.156
40    VFGSRCLLTVVV           0.519
41    ASPLRLFIPFLF           0.755
